Give enrichment ratio for every item shown.
B1: PhoQ; a variant is named by its letters at X, in order, P23837 (parent)
chain: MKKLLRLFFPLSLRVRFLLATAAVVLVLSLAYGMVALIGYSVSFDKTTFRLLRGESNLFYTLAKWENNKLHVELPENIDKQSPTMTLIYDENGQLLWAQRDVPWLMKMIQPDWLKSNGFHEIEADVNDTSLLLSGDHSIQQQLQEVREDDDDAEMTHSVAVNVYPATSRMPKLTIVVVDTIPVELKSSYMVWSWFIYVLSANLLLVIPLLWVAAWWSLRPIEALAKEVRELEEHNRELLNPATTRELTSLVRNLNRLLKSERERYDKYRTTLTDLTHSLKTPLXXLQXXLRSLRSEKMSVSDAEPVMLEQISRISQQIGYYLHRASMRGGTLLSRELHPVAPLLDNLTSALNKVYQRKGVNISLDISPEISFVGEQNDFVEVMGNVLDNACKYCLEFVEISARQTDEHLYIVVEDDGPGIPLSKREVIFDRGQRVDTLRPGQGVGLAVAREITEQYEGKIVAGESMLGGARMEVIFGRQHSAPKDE

variants of: B1; experiment: enrichment ratio after two sorts for PhoP signalling (ratio (wild type AVST 3.29)); higher = more functional; conditions: with PhoP (E. coli)
Over roughly 140,000 sequences, “enrichment ratio after two sorts for PhoP signalling” has its median near 0; the highest 2% begin near 11. What follows is part of a selection rich in the highest values, with near analogues and random picks from the rest.

Query :: Report enrichment ratio for "TVTA" please.
Result :: 19.9

Query :: Same for "HLYG"
Result :: ≤ 0.25

Query :: Same for "NQIK"
Result :: ≤ 0.25

Query :: Same for "CLFG"
Result :: ≤ 0.25

Query :: Same for "SPTA"
Result :: ≤ 0.25

Query :: Same for "SRSV"
Result :: ≤ 0.25

Query :: Same for "KSSV"
Result :: ≤ 0.25

Query :: Same for "SQSV"
Result :: 11.9

Query :: Same for "ILAT"
Result :: 0.361

Query :: Same for "MMRA"
Result :: ≤ 0.25

Query :: Same for "GMYR"
Result :: ≤ 0.25

Query :: Same for "IFIA"
Result :: ≤ 0.25

Query :: Same for "DISV"
Result :: ≤ 0.25

Query :: Same for "LNNT"
Result :: ≤ 0.25

Query :: Same for "WQAF"
Result :: ≤ 0.25

Query :: Same for "SGDW"
Result :: ≤ 0.25

Query :: Same for "FECM"
Result :: 5

Query :: Same for "KSTA"
Result :: ≤ 0.25

Query :: Same for "EHIV"
Result :: ≤ 0.25

Query :: Same for "GQLV"
Result :: 7.76

Query :: Same for "RAMR"
Result :: ≤ 0.25

Query :: Same for "MACM"
Result :: ≤ 0.25
